The reported measurements were obtained from PubChem BioAssay AID1063.

assay: Leishmania major promastigote growth inhibition, primary screen (AID 1063); conditions: Leishmania major promastigotes, resazurin fluorescence viability; at 10 µM;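 further: promastigotes grown with compound for 44 hours at 28 °C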
The campaign covered roughly 200,000 compounds. About 18,000 (9%) were called active. No stated cut-off is given here; in the data, active means inhibition above about 50%; inactive means the rest. The list comes from a sample in which actives are over-represented; it also holds close analogues and randomly drawn compounds.
Mark one answer only. Choices: active, inactive

Past entries and their recorded results:
INSERT INTO measurements (compound, classification) VALUES
  ('Cc1cccc(NC(=O)Nc2ccc3c(c2)OCO3)n1', 'inactive'),
  ('CCC(=O)NC(=Nc1nc2ccccc2s1)NC(=O)CC', 'inactive'),
  ('CC(c1ccco1)N(C(=O)c1ccc(S(=O)(=O)N2CCCCC2)cc1)c1ccccn1 (stereo not given)', 'active'),
  ('Cc1ccc(OCCCCN2CCCCC2)c(Br)c1', 'active'),
  ('CCN(CC)c1ccc2c(Nc3ccccc3)c(C=O)c(=O)oc2c1', 'inactive'),
  ('c1ccc2c(c1)CSc1sccc1C2=C1CCNCC1', 'active');

Request: Per the assay record, what outcome was assigned to `O=C1CN(C(=O)COC(=O)c2cnc(Cl)c(Cl)c2)c2ccccc2N1` ?
Result: inactive

Request: // repeat for COc1ccccc1CNC(=O)C1Cc2ccccc2C(=O)O1 (stereo not given) and report
Result: inactive

Request: // repeat for CC(c1ccco1)N(C(=O)COc1ccccc1[N+](=O)[O-])c1ccccn1 (stereo not given) and report
Result: inactive

* * *

test: Leishmania major promastigote growth inhibition, primary screen (AID 1063); conditions: Leishmania major promastigotes, resazurin fluorescence viability; at 10 µM; hits give high values;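 further: promastigotes grown with compound for 44 hours at 28 °C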
About 18,000 (9%) of roughly 200,000 compounds were called active. What follows is part of a selection rich in actives, with near analogues and random picks from the rest.
PROPERTY: inhibition (%)
Express your answer in %, writing the number without its unit.

INSERT INTO assay_data (compound, value) VALUES
  ('C=CCn1c(SCc2cc(C(=O)OC)c(C)o2)nnc1-c1ccncc1', -5.9),
  ('Cc1ccc(NC(=O)c2ccn(C(=O)Nc3ccccc3)n2)c(C)c1', -1.05),
  ('CCC(=O)Nc1c(S(=O)(=O)c2ccccc2)c2nc3ccccc3nc2n1Cc1ccccc1', 32.2),
  ('O=C(c1cccc(S(=O)(=O)N2CCOCC2)c1)N1CCOCC1', -2.4),
  ('Cc1ccc(NC(=O)Cn2nc(C)c3ccccc3c2=O)c(C)c1', 34.8);

Request: Using the record for `Cc1ccc(C(=O)N/C(=C\c2ccco2)C(=O)N2CCSCC2)cc1C` , report its inhibition.
Result: 10.4

Request: // repeat for `Oc1ccccc1N1CCN(C(=S)NCc2ccccc2)CC1` and report
Result: -5.57

Request: // repeat for `C=CCn1c(SCc2c(C(=O)OC)sc(N)c2C(=O)OC)nnc1-c1ccc(Cl)cc1` and report
Result: 50.9

* * *

experiment: Leishmania major promastigote growth inhibition, primary screen (AID 1063); conditions: Leishmania major promastigotes, resazurin fluorescence viability; at 10 µM; hits give high values;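 further: promastigotes grown with compound for 44 hours at 28 °C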
The campaign covered roughly 200,000 compounds. About 18,000 (9%) were called active. This is one part of a sample in which actives are shown more often than they occur.
Below is a list of entries, each paired with its recorded inhibition value.
Express your answer in %, writing the number without its unit.

Here's what some known entries look like.
INSERT INTO measurements (compound, value) VALUES
  ('C/C(=N\NC(=S)NCc1ccccc1)C1CCCCC1', 89.9),
  ('CO/N=C/c1cn(-c2ccc(Cl)cc2)nn1', -1.77),
  ('OC(COCCC12CC3CC(CC(C3)C1)C2)CN1CCCCC1 (stereo not given)', 92.4),
  ('Cc1[nH]c2ccccc2c1C(=O)COC(=O)c1c(-c2ccccc2)noc1C', 95.7),
  ('CC(C)OCC(O)CN1CCN(C(c2ccccc2)c2ccccc2)CC1 (stereo not given)', 0.57);

Request: Using the record for CCCOc1ccc(C2C(C(=O)c3ccc(C)o3)=C(O)C(=O)N2CCCn2ccnc2)cc1 (stereo not given) , report its inhibition.
Result: -8.78

Request: // repeat for `CCCOc1ccc(Cn2ccnc2)cc1[N+](=O)[O-]` and report
Result: 85.9

* * *

Below is a list of entries, each paired with its recorded inhibition value.
experiment: Leishmania major promastigote growth inhibition, primary screen (AID 1063); conditions: Leishmania major promastigotes, resazurin fluorescence viability; at 10 µM; hits give high values;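 further: promastigotes grown with compound for 44 hours at 28 °C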
Out of some 200,000 compounds screened, about 18,000 (9%) were called active. Shown is part of a subset that was picked to be rich in actives.
Express your answer in %, writing the number without its unit.

Here's what some known entries look like.
INSERT INTO results (compound, property, value) VALUES
  ('OC(COc1ccc2ccccc2c1)Cn1cncn1 (configuration not stated)', 'inhibition', -2.08),
  ('Cc1ccccc1OCC(=O)Nc1ccc(N2CCN(C(=O)C(C)C)CC2)c(Cl)c1', 'inhibition', 40.7),
  ('COc1ccc(N(CC(=O)NC2CCCC2)C(=O)CS(=O)CC(=O)Nc2ccc3c(c2)OCO3)cc1 (configuration not stated)', 'inhibition', -10.1),
  ('CN(C)S(=O)(=O)c1cccc(NC(=S)NCc2ccc3c(c2)OCO3)c1', 'inhibition', -0.11),
  ('COC(=O)C1=C(C)NC(=O)CC1c1ccccc1OC (configuration not stated)', 'inhibition', -5.13);

Request: Using the record for `CC(=O)c1ccc(NC(=O)N[C@@H](Cc2ccccc2)C(=O)O)cc1` , report its inhibition.
Result: -5.12

Request: // repeat for CCn1ccnc1CN1CCCC(C(=O)c2ccc3c4c(cccc24)CC3)C1 (configuration not stated) and report
Result: 40

Request: // repeat for `COc1ccccc1-n1cnc2cc(NS(=O)(=O)c3ccccc3)ccc21` and report
Result: 98.3

Request: // repeat for CC(NC(=S)Nc1ccc(OC(F)F)cc1)c1ccc(F)cc1 (configuration not stated) and report
Result: 36.8

Request: // repeat for `Cn1cc([N+](=O)[O-])c(C(=O)Nc2ccc3c(c2)OCCO3)n1` and report
Result: 10.7

Request: // repeat for `COc1ccc(C(=O)NC(=S)NNC(=O)c2c(-c3ccccc3)noc2C)cc1` and report
Result: -0.99

Request: // repeat for CC(=O)NC(Cc1ccc(F)c(F)c1)C(=O)NC1CCN(c2nnnn2-c2ccccc2)CC1 (configuration not stated) and report
Result: 9.51

* * *

test: Leishmania major promastigote growth inhibition, primary screen (AID 1063); details: Leishmania major promastigotes, resazurin fluorescence viability; at 10 µM; hits give high values;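 further: promastigotes grown with compound for 44 hours at 28 °C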
Out of some 200,000 compounds screened, about 18,000 (9%) were called active. This excerpt belongs to a sample that is enriched for actives.
PROPERTY: inhibition (%)
Express your answer in %, writing the number without its unit.

Here's what some known entries look like.
INSERT INTO measurements (given_smiles, property, value) VALUES
  ('CN(C)C(=O)c1cccn(Cc2cccc(C(F)(F)F)c2)c1=O', 'inhibition', -8.4),
  ('COc1ccc(-n2c(SCC(=O)NCc3ccco3)nnc2-c2c[nH]c3ccccc23)cc1', 'inhibition', 97.7),
  ('COc1cc(/C=C/C(=O)OCC(=O)NC(=O)NCc2ccccc2)ccc1OCC#N', 'inhibition', -1.09),
  ('Cc1ccc(OCC(=O)Nc2ccccc2Sc2ccc(Cl)cc2)c([N+](=O)[O-])n1', 'inhibition', 7.6),
  ('CCOC(=O)CNc1nc(Cl)nc(Nc2ccccc2)n1', 'inhibition', 6.65);

Request: Using the record for `CN(C)c1ccc2c(=O)[nH][nH]c(=O)c2c1` , report its inhibition.
Result: -5.2

Request: // repeat for `O=C(CSc1nnc2scc(-c3ccc(F)cc3)n12)NCc1ccco1` and report
Result: -2.03

Request: // repeat for `CCOC(=O)c1cc2c(=O)[nH]c(C(Cl)(Cl)Cl)nc2o1` and report
Result: -8.22

Request: // repeat for `Cc1cc(C)c(S(=O)(=O)N2CCOCC2)cc1C` and report
Result: 0.43

Request: // repeat for `COc1ccc(S(=O)(=O)N2CCC(C(=O)N3CCOCC3)CC2)cc1OC` and report
Result: -6.25

* * *

assay: Leishmania major promastigote growth inhibition, primary screen (AID 1063); settings: Leishmania major promastigotes, resazurin fluorescence viability; at 10 µM;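 further: promastigotes grown with compound for 44 hours at 28 °C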
Out of some 200,000 compounds screened, about 18,000 (9%) were called active. Rule as the data show it: active = inhibition above about 50%; inactive = the rest. The full list was thinned out, with actives kept by preference.
Mark one answer only. Choices: active, inactive

INSERT INTO measurements (compound, classification) VALUES
  ('O=S(=O)(NCc1ccccc1)c1ccc(S(=O)(=O)N2CCCC2)cc1', 'inactive'),
  ('CCCOc1ccc(NC(=O)CC2C(=O)N(C)C(=S)N2Cc2ccc3c(c2)OCO3)cc1 (stereo unspecified)', 'inactive'),
  ('CCOc1ccc(OCc2cccc(C(=O)N(CC)CC)c2)cc1', 'inactive'),
  ('CC1(C)CN(c2ccc(-c3ccnc4ncnn34)cc2)C1=O', 'inactive'),
  ('CCOc1ccc(CN2CCCN(C)CC2)cc1', 'active'),
  ('COc1ccc(-c2cc(C(F)(F)F)nc(S(C)(=O)=O)n2)cc1OC', 'active'),
  ('Cn1c(=O)c2c(nc(CN3CCOCC3)n2Cc2ccccc2)n(C)c1=O', 'inactive'),
  ('CCOC(=O)Nc1ccc(NC(=O)OCC)cc1', 'inactive');

Request: Per the assay record, what outcome was assigned to `COc1ccccc1-c1noc(CSc2nc(C)cc(=O)[nH]2)n1` ?
Result: inactive

Request: // repeat for `S=C(NCc1ccc(Cl)cc1)NC1CCCCC1` and report
Result: active

Request: // repeat for `Cc1cc(C)n(Cc2cnc(N3CCOCC3)s2)n1` and report
Result: inactive

Request: // repeat for c1ccc(C2CCC(N3CCC(N4CCCCC4)CC3)CC2)cc1 (stereo unspecified) and report
Result: active

Request: // repeat for `Clc1cccc(N=C2NN=C(c3ccc4c(c3)OCCO4)CS2)c1` and report
Result: inactive

Request: // repeat for `O=C(/C=C/c1ccco1)Nc1cccc(-c2nc3ccccc3[nH]2)c1` and report
Result: inactive

Request: // repeat for `c1ccc(COc2ccccc2CNCc2cccnc2)cc1` and report
Result: active

Request: // repeat for `Cc1c(-c2nn(C)c(=O)c3ccccc23)oc2ccc(F)cc2c1=O` and report
Result: active

Request: // repeat for `Fc1ccccc1COc1ccccc1CNCc1ccncc1` and report
Result: active

Request: // repeat for `Cc1nnc(NC(=O)/C=C/c2ccco2)s1` and report
Result: inactive

Request: // repeat for `Cc1cc(C)n(-c2ccc(C(=O)O)cc2[N+](=O)[O-])n1` and report
Result: inactive

Request: // repeat for `CSc1nc2ccc(NC(=O)c3c(F)cccc3F)cc2s1` and report
Result: inactive

Request: // repeat for OCC(O)CN(c1ccccc1)c1ccccc1 (stereo unspecified) and report
Result: inactive
